All figures here come from patent US20030171347A1.

Target: σ2 sites (Rattus norvegicus)
Construct: Crude P2 membranes were prepared from guinea pig brain, rat brain, or rat liver; from tissue; host or cells: rat liver (crude P2 membranes)
Sequence (Q5U3Y7 1-176): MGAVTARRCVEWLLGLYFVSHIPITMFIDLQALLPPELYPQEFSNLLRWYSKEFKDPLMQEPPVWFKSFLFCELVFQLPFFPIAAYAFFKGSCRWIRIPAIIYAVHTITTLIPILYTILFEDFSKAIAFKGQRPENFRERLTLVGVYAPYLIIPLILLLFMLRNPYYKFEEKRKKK
Assay: σ2 receptor competition binding
Conditions: Table 1; [3H]DTG plus dextrallorphan, rat liver; mean±SEM, minimum of two independent assays
log10(Ki) values by entry
parameter_measured: log10(Ki) (log10 of the value in nM)

INSERT INTO results (compound, experimental_result) VALUES
  ('COc1ccc(CCN2CCN(CCCc3ccccc3)CC2)cc1', 1.46),
  ('Clc1ccc(CCN2CCN(CCCc3ccccc3)CC2)cc1Cl', 1.59),
  ('CN(CCc1ccccc1N)CCN1CCCC1', 2.81),
  ('Nc1ccccc1CCN1CCN(CCCc2ccccc2)CC1', 1.26),
  ('COc1ccccc1CCN1CCN(CCCc2ccccc2)CC1', 0.90),
  ('CN(CCc1ccc([N+](=O)[O-])cc1)CCN1CCCC1', 1.80),
  ('C[C@@H]1CN(CCCn2c3ccccc3c3ccccc32)C[C@H](C)N1 [Rimcazole, reference compound]', 3.06),
  ('CN(CCc1ccccc1[N+](=O)[O-])CCN1CCCC1', 2.49),
  ('COc1ccc(CC(=O)N(C)CCN2CCCC2)cc1', 3.09),
  ('NCCN1CCN(CCCc2ccccc2)CC1', 2.27);

---

Molecular target: σ2 sites (Rattus norvegicus)
Construct: Crude P2 membranes were prepared from guinea pig brain, rat brain, or rat liver; from tissue; host or cells: rat liver (crude P2 membranes)
Experiment: σ2 receptor competition binding
Conditions: Table 1; [3H]DTG plus dextrallorphan, rat liver; mean±SEM, minimum of two independent assays
parameter_measured: Ki

INSERT INTO results (compound, experimental_result) VALUES
  ('CN(CCc1cccc(N)c1)CCN1CCCC1', '2240 nM'),
  ('CN(CCc1cccc([N+](=O)[O-])c1)CCN1CCCC1', '95 nM'),
  ('COc1ccc(CC(=O)N2CCN(CCCc3ccccc3)CC2)cc1', '464 nM'),
  ('O=C(Cc1ccc([N+](=O)[O-])cc1)N1CCN(CCCc2ccccc2)CC1', '167 nM'),
  ('COc1ccccc1CC(=O)N(C)CCN1CCCC1', '3170 nM'),
  ('COc1ccccc1CC(=O)N1CCN(CCCc2ccccc2)CC1', '294 nM'),
  ('COc1cccc(CC(=O)N(C)CCN2CCCC2)c1', '1110 nM'),
  ('OC(CCCN1CCN(c2ncc(F)cn2)CC1)c1ccc(F)cc1 (centres unmarked) [BMY14802, reference compound]', '51 nM'),
  ('CCCN(CCc1ccc(Cl)c(Cl)c1)CCN1CCCCC1', '545 nM'),
  ('COc1cccc(CCN2CCN(C(=O)Cc3cccc(OC)c3)CC2)c1', '12 nM'),
  ('CN(CCc1ccc(N)cc1)CCN1CCCC1', '973 nM');

---

Target: σ1 receptors (Cavia porcellus, UniProt Q60492)
Construct: Crude P2 membranes were prepared from guinea pig brain, rat brain, or rat liver; from tissue; host or cells: guinea pig brain (crude P2 membranes)
Sequence (Q60492 whole entry): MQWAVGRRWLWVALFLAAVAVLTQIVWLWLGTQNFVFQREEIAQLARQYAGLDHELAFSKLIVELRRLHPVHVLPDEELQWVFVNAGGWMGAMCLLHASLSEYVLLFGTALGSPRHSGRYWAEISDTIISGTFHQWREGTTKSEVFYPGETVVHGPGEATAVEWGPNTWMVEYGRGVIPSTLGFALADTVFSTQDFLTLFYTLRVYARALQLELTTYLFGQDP
Test: σ1 receptor competition binding
Parameters: species or system guinea pig
Conditions: read-out: σ1
parameter_measured: Ki (nM)

INSERT INTO measurements (smiles, assayed_system, experimental_result) VALUES
  ('CCCN(CCc1ccc(Cl)c(Cl)c1)CCN1CCCCC1', 'σ1 receptors (Cavia porcellus, UniProt Q60492)', 1);

---

Biological target: Dopamine (D2) receptors (Rattus norvegicus, UniProt P61169)
Construct: from tissue; host or cells: rat brain homogenate / P2 membranes
Sequence (P61169 whole entry): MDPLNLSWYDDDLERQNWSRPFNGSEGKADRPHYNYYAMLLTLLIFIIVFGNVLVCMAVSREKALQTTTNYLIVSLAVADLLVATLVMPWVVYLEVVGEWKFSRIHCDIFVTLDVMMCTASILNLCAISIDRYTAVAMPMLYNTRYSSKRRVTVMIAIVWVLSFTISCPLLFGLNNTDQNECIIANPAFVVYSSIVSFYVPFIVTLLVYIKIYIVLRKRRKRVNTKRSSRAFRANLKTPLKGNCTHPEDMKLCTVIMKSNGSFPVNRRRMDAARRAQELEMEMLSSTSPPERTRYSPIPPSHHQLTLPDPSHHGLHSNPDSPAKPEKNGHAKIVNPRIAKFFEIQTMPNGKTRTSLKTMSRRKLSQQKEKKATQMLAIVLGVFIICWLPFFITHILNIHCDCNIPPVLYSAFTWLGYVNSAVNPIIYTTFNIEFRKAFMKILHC
Assay: Dopamine D2 receptor competition binding ([3H](−)sulpiride)
pIC50: −log10 of the molar value.
parameter_measured: pIC50

INSERT INTO measurements (smiles, experimental_result) VALUES
  ('CN(C)CCN(C)CCc1ccc(Cl)c(Cl)c1', '< 5.00');

---

Target: σ1 receptors (Cavia porcellus, UniProt Q60492)
Construct: Crude P2 membranes were prepared from guinea pig brain, rat brain, or rat liver; from tissue; host or cells: guinea pig brain (crude P2 membranes)
Assay: σ1 receptor competition binding
Set-up: species or system guinea pig
Settings: Table 5, dopamine transporter ligands; read-out: σ1
parameter_measured: Ki (nM)

INSERT INTO results (molecule, parameter_measured, endpoint_unit, experimental_result) VALUES
  ('Fc1ccc(C(OCCN2CCN(CCCc3ccccc3)CC2)c2ccc(F)cc2)cc1 [GBR 12909, reference compound]', 'Ki', 'nM', 132);

---

Target: α1-adrenoceptors
Experiment: α1-adrenoceptor competition binding ([3H]prazosin)
Conditions: rat brain homogenates
pIC50: −log10 of the molar value.
The entries below are paired with their reported pIC50.
parameter_measured: pIC50

INSERT INTO assay_data (compound, parameter_measured, experimental_result) VALUES
  ('CN1CCN(CCc2ccc(Cl)c(Cl)c2)CC1 [BD1063]', 'pIC50', '< 5.00'),
  ('CN(C)CCN(C)CCc1ccc(Cl)c(Cl)c1 [BD1047]', 'pIC50', '< 5.00');

---

Molecular target: muscarinic cholinergic receptors (Rattus norvegicus)
Construct: from tissue; host or cells: rat brain homogenate / P2 membranes
Sequence (P08482 whole entry): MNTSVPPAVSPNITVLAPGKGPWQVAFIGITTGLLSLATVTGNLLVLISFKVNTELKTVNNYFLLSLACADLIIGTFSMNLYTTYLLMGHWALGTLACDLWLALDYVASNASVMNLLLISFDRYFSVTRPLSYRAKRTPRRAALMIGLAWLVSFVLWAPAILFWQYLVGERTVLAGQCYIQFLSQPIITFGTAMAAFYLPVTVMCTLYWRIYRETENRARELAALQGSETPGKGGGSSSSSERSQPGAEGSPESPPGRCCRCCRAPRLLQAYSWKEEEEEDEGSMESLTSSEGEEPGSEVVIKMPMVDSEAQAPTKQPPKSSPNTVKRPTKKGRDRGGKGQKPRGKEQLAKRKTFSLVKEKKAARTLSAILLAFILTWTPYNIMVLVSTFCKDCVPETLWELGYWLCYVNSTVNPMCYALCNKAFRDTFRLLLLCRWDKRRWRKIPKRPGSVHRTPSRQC
Assay: Muscarinic cholinergic receptor competition binding
Settings: rat brain homogenates, [3H]pirenzepine; read-out: mACh
pIC50: −log10 of the molar value.
parameter_measured: pIC50

INSERT INTO results (smiles, experimental_result) VALUES
  ('CN1CCN(CCc2ccc(Cl)c(Cl)c2)CC1', 5.02);

---

Target: PCP sites on NMDA receptors (Rattus norvegicus, UniProt P35439)
Test: PCP site competition binding ([3H]TCP)
pIC50: −log10 of the molar value.
parameter_measured: pIC50

INSERT INTO assay_data (compound, parameter_measured, experimental_result) VALUES
  ('CN(C)CCN(C)CCc1ccc(Cl)c(Cl)c1 [BD1047]', 'pIC50', '< 5.00');

---

List of pIC50 values.
Target: 5-HT1 receptors
Experiment: 5-HT1 receptor competition binding ([3H]5-HT)
Conditions: rat brain homogenates
pIC50: −log10 of the molar value.
parameter_measured: pIC50

INSERT INTO assay_data (molecule, experimental_result) VALUES
  ('CN(C)CCN(C)CCc1ccc(Cl)c(Cl)c1 [BD1047]', '< 5.00'),
  ('CN1CCN(CCc2ccc(Cl)c(Cl)c2)CC1 [BD1063]', '< 5.00');

---

Target: 5-HT2 receptors (Rattus norvegicus, UniProt P14842)
Sequence (P14842 whole entry): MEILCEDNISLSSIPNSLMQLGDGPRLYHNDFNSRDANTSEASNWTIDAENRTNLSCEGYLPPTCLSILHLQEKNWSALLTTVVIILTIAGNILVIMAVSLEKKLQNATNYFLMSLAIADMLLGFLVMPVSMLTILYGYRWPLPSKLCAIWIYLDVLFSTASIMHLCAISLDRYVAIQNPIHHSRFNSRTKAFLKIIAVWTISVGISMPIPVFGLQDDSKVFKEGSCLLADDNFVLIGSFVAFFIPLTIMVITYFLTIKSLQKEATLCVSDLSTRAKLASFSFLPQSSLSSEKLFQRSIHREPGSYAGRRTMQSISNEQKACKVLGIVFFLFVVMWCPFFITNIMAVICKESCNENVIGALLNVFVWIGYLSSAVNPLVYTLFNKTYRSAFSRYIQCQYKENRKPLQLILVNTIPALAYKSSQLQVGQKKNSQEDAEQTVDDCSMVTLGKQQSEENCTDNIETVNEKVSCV
Assay: 5-HT2 receptor competition binding ([3H]ketanserin)
parameter_measured: IC50 (µM)

INSERT INTO assay_data (compound, endpoint_unit, experimental_result) VALUES
  ('CN(C)CCN(C)CCc1ccc(Cl)c(Cl)c1 [BD1047]', 'µM', 4.67);
